Target Or Test System: hGPR120 (Homo sapiens, UniProt Q5NUL3)
Construct: expressed in transfected cells; host or cells: CHO-K1
Experiment Description: Measurement of activity of GPR120 agonist (cell-based assay), calcium fluorescence
Conditions Used: CHO-K1 cells expressing Ga16 and hGPR120; Calcium 5 dye fluorescence; numeric value
pEC50: −log10 of the molar value.
Parameter: pEC50

Compound | Parameter | Reported Value
CC(C)Sc1ncccc1COc1ccc(C2CC2C(=O)O)cc1Cl (stereo not drawn) | pEC50 | 7.04

A: O=C(O)CCCc1ccc(OCc2cccnc2SC2CCCC2)cc1
B: O=C(O)C1CC1c1ccc(OCc2cccc(SC3CCC3)n2)c(F)c1 (single isomer, unassigned) [Example 167]
Which item exceeds the other in pEC50, A or B ? Output the label that corresponds to your choice.
B

###

Target Or Test System: hGPR120 (Homo sapiens)
Construct: expressed in transfected cells; host or cells: CHO-K1
Sequence (Q5NUL3 1-361): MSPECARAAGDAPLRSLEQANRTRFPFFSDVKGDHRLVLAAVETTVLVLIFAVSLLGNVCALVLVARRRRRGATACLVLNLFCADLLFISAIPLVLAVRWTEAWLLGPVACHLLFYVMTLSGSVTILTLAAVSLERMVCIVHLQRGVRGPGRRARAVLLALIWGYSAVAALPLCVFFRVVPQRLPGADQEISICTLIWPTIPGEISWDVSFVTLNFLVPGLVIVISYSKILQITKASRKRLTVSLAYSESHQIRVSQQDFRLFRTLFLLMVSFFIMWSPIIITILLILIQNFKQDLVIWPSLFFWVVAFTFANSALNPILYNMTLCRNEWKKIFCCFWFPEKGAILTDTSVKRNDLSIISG
Experiment Description: Measurement of activity of GPR120 agonist (cell-based assay), calcium fluorescence
Conditions Used: CHO-K1 cells expressing Ga16 and hGPR120; Calcium 5 dye fluorescence; activity class
Parameter: EC50

See these solved cases before continuing.
Molecule | Target Or Test System | Parameter | Reported Value
CCCCSc1ncccc1COc1c(F)cc(CCC(=O)O)cc1F | hGPR120 (Homo sapiens) | EC50 | < 200 nM
O=C(O)C1CC1c1ccc(OCc2cccc(SC3CCCC3)n2)cc1Cl (stereo not drawn) | hGPR120 (Homo sapiens) | EC50 | 200 to 2000 nM
CC(C)Sc1ncccc1COc1ccc(CC(C)C(=O)O)cc1F (stereo not drawn) | hGPR120 (Homo sapiens) | EC50 | < 200 nM
CC(Cc1ccc(OCc2cccnc2SC2CCC2)c(F)c1)C(=O)O (stereo not drawn) | hGPR120 (Homo sapiens) | EC50 | < 200 nM
CC(C)Sc1cccc(COc2ccc(C3CC3C(=O)O)cc2F)n1 (single isomer, unassigned) [Example 131] | hGPR120 (Homo sapiens) | EC50 | 200 to 2000 nM

Let me know recorded EC50 for CCC(C)Sc1ncccc1COc1c(F)cc(CC(C)C(=O)O)cc1F (stereo not drawn) , thanks.
200 to 2000 nM

Please indicate EC50 recorded for O=C(O)C1CC1c1cc(F)c(OCc2cccc(SCC3CC3)n2)c(F)c1 (stereo not drawn)
< 200 nM

Respond only with EC50 recorded for CC(C)Sc1cccc(COc2ccc(CCC(=O)O)cc2Cl)n1
< 200 nM

For the molecule CC(C)Sc1cccc(COc2c(F)cc(CC(C)C(=O)O)cc2F)n1 (stereo not drawn) , give its measured EC50 value.
< 200 nM

###

Target Or Test System: hGPR120 (Homo sapiens, UniProt Q5NUL3)
Construct: expressed in transfected cells; host or cells: CHO-K1
Experiment Description: Measurement of activity of GPR120 agonist (cell-based assay), calcium fluorescence
Conditions Used: CHO-K1 cells expressing Ga16 and hGPR120; Calcium 5 dye fluorescence; numeric value
pEC50: −log10 of the molar value.
Parameter: pEC50

Compound | Reported Value
CC(C)Sc1ncccc1COc1ccc(C2CC2C(=O)O)cc1F (stereo not shown) | 6.96
O=C(O)C1CC1c1ccc(OCc2cccc(SCC3CC3)n2)c(Cl)c1 (stereo not shown) | 7.38
COc1cc(CCC(=O)O)ccc1OCc1cccnc1SC(C)C | 6.34
O=C(O)CCc1cc(F)c(OCc2cccnc2SC2CCCC2)c(F)c1 | 7.24
CC(C)Sc1ncccc1COc1c(F)cc(C2CC2C(=O)O)cc1F (stereo not shown) | 7.25
CC(Cc1ccc(OCc2cccnc2SC2CCC2)c(Cl)c1)C(=O)O (stereo not shown) | 7.06

1: CCCSc1ncccc1COc1c(F)cc(CC2CC2C(=O)O)cc1F (stereo not shown)
2: O=C(O)C1CC1c1ccc(OCc2cccnc2SC2CCC2)c(F)c1 (stereo not shown)
3: O=C(O)CCc1ccc(OCc2cccc(SCC3CC3)n2)c(Cl)c1
4: Cc1ccc(COc2ccc(CCC(=O)O)cc2)c(SC(C)C)n1
5: O=C(O)CCc1ccc(OCc2cccnc2SCC2CC2)c(F)c1
Arrange the 5 entries by pEC50 so the values rise. List each label, following the requested order.
2, 4, 1, 5, 3
(2: 4.24, 4: 6.36, 1: 6.97, 5: 7.27, 3: 7.96)

1: Cc1c(OCc2cccnc2SC2CCCC2)ccc2c(CC(=O)O)coc12
2: O=C(O)C1CC1c1ccc(OCc2cccnc2SC2CCCC2)c(F)c1 (stereo not shown)
Please indicate which has the smaller reported pEC50: 1 , or 2 . State your choice using its label.
2

###

Target Or Test System: hGPR120 (Homo sapiens)
Construct: expressed in transfected cells; host or cells: CHO-K1
Sequence (Q5NUL3 1-361): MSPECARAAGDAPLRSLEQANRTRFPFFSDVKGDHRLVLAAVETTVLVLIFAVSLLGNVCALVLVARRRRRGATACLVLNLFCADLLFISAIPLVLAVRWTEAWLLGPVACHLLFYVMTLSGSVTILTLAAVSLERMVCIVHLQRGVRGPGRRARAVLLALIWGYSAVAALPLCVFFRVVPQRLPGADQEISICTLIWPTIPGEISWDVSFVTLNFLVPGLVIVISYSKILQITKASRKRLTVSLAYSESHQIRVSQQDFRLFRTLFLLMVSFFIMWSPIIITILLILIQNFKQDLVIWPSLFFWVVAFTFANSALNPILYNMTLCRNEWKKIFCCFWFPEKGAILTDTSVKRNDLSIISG
Experiment Description: Measurement of activity of GPR120 agonist (cell-based assay), calcium fluorescence
Conditions Used: CHO-K1 cells expressing Ga16 and hGPR120; Calcium 5 dye fluorescence; activity class
pEC50: −log10 of the molar value.
Property: pEC50; scope: individual compounds

Compound | pEC50
CC(C)Sc1ncccc1COc1ccc(CC(C)C(=O)O)cc1 (stereo not drawn) | 5.70 to 6.70
CC(Cc1ccc(OCc2cccc(SC3CCC3)n2)c(F)c1)C(=O)O (stereo not drawn) | > 6.70
O=C(O)C1CC1c1ccc(OCc2cccc(SC3CCCC3)n2)c(F)c1 (stereo not drawn) [Example 85] | > 6.70

Report its pEC50 with hGPR120 (Homo sapiens) as the test system: CC(Cc1ccc(OCc2cccnc2SC2CCCC2)cc1)C(=O)O (stereo not drawn)
> 6.70

Given CCCSc1ncccc1COc1ccc(C2CC2C(=O)O)c(C)c1C (stereo not drawn) , report its pEC50 on hGPR120 (Homo sapiens).
< 4.70

State pEC50 (hGPR120 (Homo sapiens)) of O=C(O)CCc1ccc(OCc2cccc(SC3CCC3)n2)c(F)c1 .
> 6.70

Give reported pEC50 for CC(C)Sc1cccc(COc2ccc(C3CC3C(=O)O)cc2F)n1 (single isomer, unassigned) [Example 166] (hGPR120 (Homo sapiens))
> 6.70

Look up and report pEC50, with hGPR120 (Homo sapiens) as system, for O=C(O)C1CC1c1ccc(OCc2cccnc2SCC2CC2)c(F)c1 (single isomer, unassigned) [Example 129]
5.70 to 6.70

// fetch pEC50 for O=C(O)C1CC1c1ccc(OCc2cccc(SC3CCC3)n2)c(Cl)c1 (stereo not drawn) [Example 103] ; system: hGPR120 (Homo sapiens)
> 6.70

###

Listing: EC50 of selected compounds
Target Or Test System: hGPR120 (Homo sapiens, UniProt Q5NUL3)
Construct: expressed in transfected cells; host or cells: CHO-K1
Experiment Description: Measurement of activity of GPR120 agonist (cell-based assay), calcium fluorescence
Conditions Used: CHO-K1 cells expressing Ga16 and hGPR120; Calcium 5 dye fluorescence; activity class

State EC50 on hGPR120 (Homo sapiens, UniProt Q5NUL3). Entry: O=C(O)CC1COc2cc(OCc3cccc(SC4CCCC4)n3)ccc21 (stereo not drawn)
200 to 2000 nM

Identify measured EC50 obtained with hGPR120 (Homo sapiens, UniProt Q5NUL3) for CCCSc1ncccc1COc1ccc(CCC(=O)O)cc1F .
< 200 nM

###

A collection of molecules and their measured pEC50
Target Or Test System: hGPR120 (Homo sapiens, UniProt Q5NUL3)
Construct: expressed in transfected cells; host or cells: CHO-K1
Experiment Description: Measurement of activity of GPR120 agonist (cell-based assay), calcium fluorescence
Conditions Used: CHO-K1 cells expressing Ga16 and hGPR120; Calcium 5 dye fluorescence; activity class
pEC50: −log10 of the molar value.

Here is how some molecules turned out for pEC50.
Molecule | pEC50
CCCSc1ncccc1COc1c(F)cc(CC(C)C(=O)O)cc1F (stereo not shown) | > 6.70
O=C(O)C1CC1c1ccc(OCc2cccnc2SC2CCC2)c(Cl)c1 (single isomer, unassigned) [Example 125] | > 6.70
O=C(O)CC1COc2cc(OCc3cccnc3SC3CCCC3)ccc21 (stereo not shown) | > 6.70
Cc1c(CCC(=O)O)ccc(OCc2cccnc2SC2CCCC2)c1C | > 6.70

Determine its reported pEC50: CC(C)Sc1ncccc1COc1ccc(C2CC2C(=O)O)c(Cl)c1 (stereo not shown)
5.70 to 6.70

Please give the documented pEC50 of CC(C)Sc1ncccc1COc1ccc(CCC(=O)O)cc1F
> 6.70

Quickly give me recorded pEC50 for O=C(O)C1CC1c1ccc(OCc2cccnc2SCC2CC2)c(Cl)c1 (stereo not shown) [Example 107]
> 6.70

Supply recorded pEC50 for CCCSc1ncccc1COc1ccc(C2CC2CC(=O)O)cc1F (stereo not shown) here.
> 6.70

Retrieve pEC50 measured for CCC(C)Sc1cccc(COc2ccc(CC(C)C(=O)O)cc2F)n1 (stereo not shown) and print it.
5.70 to 6.70

Consider the molecule O=C(O)CCc1ccc(OCc2cccc(SC3CCC3)n2)cc1 . State its measured pEC50.
> 6.70

Identify measured pEC50 corresponding to CC(Cc1cc(F)c(OCc2cccnc2SC2CCC2)c(F)c1)C(=O)O (stereo not shown)
> 6.70

Specify reported pEC50 for the molecule shown: CCC(C)Sc1cccc(COc2c(F)cc(CC(C)C(=O)O)cc2F)n1 (stereo not shown)
5.70 to 6.70

Look up and report measured pEC50 for this entry: CCC(C)Sc1cccc(COc2c(F)cc(CCC(=O)O)cc2F)n1 (stereo not shown)
> 6.70

For the molecule Cc1ccc(COc2c(F)cc(CCC(=O)O)cc2F)c(SC(C)C)n1 , give its measured pEC50 value.
> 6.70

Please indicate pEC50 recorded for O=C(O)CC1COc2c1cc(F)c(OCc1cccnc1SC1CCC1)c2F (stereo not shown)
> 6.70

Consider the molecule CCSc1ncccc1COc1c(F)cc(CCC(=O)O)cc1F . State its measured pEC50.
> 6.70

State its pEC50: O=C(O)C1CC1c1ccc(OCc2cccc(SC3CCC3)n2)cc1Cl (stereo not shown)
> 6.70

State its pEC50 for this molecule: COc1ccc(COc2c(F)cc(CCC(=O)O)cc2F)c(SC2CCCC2)n1
5.70 to 6.70

Please indicate pEC50 recorded for CCCCSc1ncccc1COc1c(F)cc(C2CC2C(=O)O)cc1F (stereo not shown)
> 6.70
